targetOfAssay: UniProtKB P51449
assayMethodText: Jurkat reporter test (human IL-17 ROR response element luciferase reporter)
Type: cell-based
conditionDetails: Jurkat, read-out: luminescence level inhibitory rate (%) at test compound 3 μM
List of inhibition at 3 µM values.

| molecule | inhibition at 3 µM |
| --- | --- |
| COc1ccc(C(NC(=O)Cn2cnc3ccccc32)C(=O)Nc2ccc([Si](C)(C)C)cc2)cc1 (stereo not shown) | 100% |
| COCc1ccc([C@@H](NC(=O)CCC(F)F)C(=O)Nc2ccc([Si](C)(C)C)c(F)c2)cc1 | 98.8% |
| COCc1ccc([C@@H](NC(=O)N2CC(O)C2)C(=O)Nc2ccc([Si](C)(C)C)c(F)c2)cc1 | 98.4% |
| COCc1ccc(C(NC(=O)Cc2nnc(C)o2)C(=O)Nc2cc(F)c([Si](C)(C)C)cc2F)cc1 (stereo not shown) | 102% |
| COCc1ccc(C(NC(=O)Cn2cnccc2=O)C(=O)Nc2cc(F)c([Si](C)(C)C)c(F)c2)cc1 (stereo not shown) | 100% |
| COCc1ccc([C@@H](NC(=O)C2CCN(C(C)=O)CC2)C(=O)Nc2ccc([Si](C)(C)C)c(F)c2)cc1 | 98.2% |
| COCc1ccc([C@@H](NC(=O)Cc2cc(O)no2)C(=O)Nc2cc(F)c([Si](C)(C)C)c(F)c2)cc1 | 99.3% |

----------
targetOfAssay: RORγt (Homo sapiens, UniProt P51449)
Sequence (P51449 1-497 isoform P51449-2): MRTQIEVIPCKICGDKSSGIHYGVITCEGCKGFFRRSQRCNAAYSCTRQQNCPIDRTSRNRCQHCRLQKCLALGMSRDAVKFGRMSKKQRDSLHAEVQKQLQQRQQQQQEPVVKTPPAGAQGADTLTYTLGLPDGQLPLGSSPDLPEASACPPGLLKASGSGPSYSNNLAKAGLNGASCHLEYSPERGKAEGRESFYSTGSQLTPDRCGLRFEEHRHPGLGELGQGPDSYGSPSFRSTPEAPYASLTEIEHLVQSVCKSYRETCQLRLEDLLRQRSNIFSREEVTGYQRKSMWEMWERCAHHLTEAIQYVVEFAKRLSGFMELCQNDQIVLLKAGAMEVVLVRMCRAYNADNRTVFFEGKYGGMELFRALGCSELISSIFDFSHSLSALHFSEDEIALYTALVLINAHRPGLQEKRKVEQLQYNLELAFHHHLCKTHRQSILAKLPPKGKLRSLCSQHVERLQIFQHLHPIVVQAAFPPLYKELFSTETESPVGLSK
assayMethodText: RORγt binding test (TR-FRET, fluorescent-labeled cholesterol)
conditionDetails: read-out: binding inhibitory rate (%) of fluorescent-labeled cholesterol to RORγt at test compound 1 μM
quantityKind: inhibition at 1 µM (%)

| compound | quantityKind | measurementUnits | reported |
| --- | --- | --- | --- |
| COCc1ccc(C(NC(=O)Cn2cnccc2=O)C(=O)Nc2ccc([Si](C)(C)C)c(F)c2)cc1 (stereo not shown) | inhibition at 1 µM | % | 96.2 |
| COc1ccc(C(NC(=O)C2CNC(=O)C2)C(=O)Nc2cc(F)c([Si](C)(C)C)cc2F)cc1 (stereo not shown) | inhibition at 1 µM | % | 102 |
| COCc1ccc([C@@H](NC(=O)[C@H]2CNC(=O)C2)C(=O)Nc2cc(F)c([Si](C)(C)C)c(F)c2)cc1 | inhibition at 1 µM | % | 101 |
| COCc1ccc(C(NC(=O)Cn2cnccc2=O)C(=O)Nc2cc(F)c([Si](C)(C)C)cc2F)cc1 (stereo not shown) | inhibition at 1 µM | % | 102 |
